- System: SNB-75 CNS
- Method Description: NCI-60 one-dose screen, 48 h (100 = growth as untreated, 0 = no growth, -100 = all killed)
- Setup Conditions: 10 µM unless noted
The panel holds about 83,000 compounds, 20% with a hit somewhere; the sample as a whole holds those more often.
Short version: growth at least 60% is Criterion met, less is Criterion not met.

Form field: growth at least 60%? Entry: `CS(=O)(=O)Nc1cc(-c2ccc3ncc(C#N)c(NCc4ccccc4F)c3c2)cnc1Cl`
Criterion not met

Kindly determine if growth recorded for CCNC(=O)N1CCc2cc(OC)c(OCCc3ccc(OC)nc3)cc2C1c1ccc(OC)cc1C (centres undefined) is above or exactly 60%.
Criterion not met

growth >= 60% for C#CCNC1CCC(c2csc(C#C)n2)=C1C (centres undefined) ?
Criterion met

Can `CNC(=O)c1c(NC(=O)c2ccccc2C(F)(F)F)sc2c1CCC(=O)C2` be said to have growth at or above 60%?
Criterion met

Dear colleague, could you confirm whether `CC(C)C[C@@H]1N[C@@]2(C(=O)Nc3ccccc32)[C@@H](c2ccc(F)cc2)[C@@H]1C(=O)c1ccc(O)cc1` has growth at or above 60%?
Criterion met

Does `NC(N)=Nc1ccc(Oc2cccc(NC(N)=Nc3ccc(Cl)c(C(F)(F)F)c3)c2)cc1` have a reported growth of at least 60%?
Criterion met

Is growth for `CS(=O)(=O)Nc1cc(-c2ccc3ncc(C#N)c(Nc4cccc(Cl)c4F)c3c2)cnc1Cl` at or above 60%?
Criterion not met

Given `CC(=O)c1ccc(Nc2nc(SCC(C)C)nc(-c3ccc(F)cc3)c2C#N)cc1` , state whether its growth is at least 60%.
Criterion met

Record CCOC(=O)C(=O)CC(=O)N1C(=S)NC(=O)C1CC(C)C (centres undefined) ; criterion: growth no lower than 60%. Met?
Criterion met

Would you say `N#Cc1cnc2ccc(-c3cnc(N)nc3)cc2c1N1CCc2cc(F)c(Cl)cc21` shows growth at minimum 60%?
Criterion not met

Dear colleague, could you confirm whether `Cn1cc(-c2cc(N)n3nc(-c4cn(C)c5ccccc45)cc3n2)c2ccccc21` has growth at or above 60%?
Criterion met

Reported growth reaches at least 60% for COc1ccc(C2CC(c3ccc(Nc4nc(NCCO)nc(N5CCOCC5)n4)cc3)=Nc3c(N)nc(N)nc3N2)cc1 (centres undefined) ?
Criterion met

Please tell me: is the compound `CN(C)CCN(C)c1ccc2ncc(C#Cc3cncc(C(=O)Nc4ccc(CN5CCN(C)CC5)c(C(F)(F)F)c4)c3)n2n1` at or over 60% in terms of growth?
Criterion not met

Confirm if growth reported for the compound `COc1ccccc1-n1cc(C#N)c(N)c1C(=O)c1ccc(C)cc1` is 60% or above.
Criterion met

Check this compound for growth at or above 60%: `C=CCn1c(-c2nc3ccc(C(=C(C#N)C#N)c4ccccc4)cc3[nH]2)cc2cc(Br)ccc21`
Criterion met

Reported growth reaches at least 60% for `Cc1cc2nc(C(Cl)Cl)nc(-c3cccs3)n2n1` ?
Criterion met

# bool: growth of `CC(=O)O[C@@H]1C(=O)N(c2cnccn2)[C@H]1c1ccccc1[N+](=O)[O-]` >= 60%
Criterion not met

Please check the record `COc1ccc(/C=C/C(=O)c2cccc(NC(=O)CSc3nc4ccccc4c(=O)n3-c3ccccc3)c2)cc1OC` and state if its growth is at or above 60%.
Criterion met

* * *

- Tested on: OVCAR-3 ovarian
- Method Description: NCI-60 one-dose screen, 48 h
- Setup Conditions: 10 µM unless noted
About 83,000 compounds went through this panel and 20% of them were active in at least one assay; those are over-represented in the sample as a whole. The source made the active and inactive calls. The calls were made as follows: active = growth percent below 10; inactive = the rest.
Hi there, use one of these labels in your reply, thanks! active, inactive

How was `Cn1ccnc1C(=O)/C=C/c1ccc(CNC(=O)c2ccc(Cl)cc2)cc1` classified in this test?
inactive

In this assay, the call recorded for `CC(C)c1ccc(NCc2cn(-c3ccc(C(=O)O)cc3)nc2-c2cc(C(F)(F)F)cc(C(F)(F)F)c2)cc1` was what?
inactive

State the result this test recorded for `O=S(=O)(Nc1ccc2c(c1)OCO2)c1ccc(-c2cnc(C3CC3)o2)cc1` .
active

Tell me the recorded outcome of this test for COC(=O)C(Cc1ccccc1)Nc1nc(NC(Cc2ccccc2)C(=O)OC)nc(N2CCOCC2)n1 (centres undefined) .
inactive

Answer briefly: the call reported for `COc1ccc(N2CCN(C3=C(Cl)C(=O)C(C)=C(C)C3=O)CC2)cc1` in this assay.
inactive

Answer briefly: the call reported for `O=C(CCn1c[n+](CC(=O)c2ccc(F)cc2)c2ccccc21)Nc1cccc2cccnc12` in this assay.
inactive

In this assay, the call recorded for `C#Cc1nc(C(=O)NCCC(=O)Nc2ccc(NC(=O)c3ccc(/C=C/C(=O)c4nccn4C)cc3)cc2)cs1` was what?
active

Which outcome was entered for the compound `Cc1nn(-c2ccccc2)c2ncnc(N/N=C/c3ccccc3)c12` in this test?
inactive

Which result was noted for this compound in the test: `CCn1c2ccccc2c2cc(-n3nncc3-c3ccccc3)ccc21`
active

* * *

- Tested on: SF-268 CNS
- Method Description: NCI-60 one-dose screen, 48 h (100 = growth as untreated, 0 = no growth, -100 = all killed)
- Setup Conditions: 10 µM unless noted
About 83,000 compounds went through this panel and 20% of them were active in at least one assay; those are over-represented in the sample as a whole.
Consider the cut-off 60%. If the recorded growth is strictly smaller, the label is 1.0; if not, the label is 0.0.

Problem: For the compound `NS(=O)(=O)c1ccc(Nc2nc(N/N=C/c3ccccn3)nc(Nc3ccccc3)n2)cc1` , is growth under 60%?
1.0

Bench note: check whether CC(C)(C)CC(C)(C)n1nnnc1C(Nc1nccs1)c1cc2cccc3ccc4cccc1c4c32 (centres undefined) shows growth below 60%
0.0

Quick check: does `COc1ccccc1-n1cc(C#N)c(N)c1C(=O)c1ccc(Br)cc1` have growth under 60%?
0.0

I wonder whether `O=C(/C=C/c1ccc(F)cc1)c1ccc(O)cc1` has growth below 60%. Can you tell?
0.0

Here's an entry: `CC(=O)c1ccc(Nc2nc(SCC(C)C)nc(-c3ccc(F)cc3)c2C#N)cc1` . Is its growth below 60%?
0.0

Input `O=C(Nc1cccc(Cl)c1)Nc1nc2ccc([N+](=O)[O-])cc2o1` ; condition: growth strictly below 60%. Does it hold?
1.0

Criterion: growth strictly below 60%. Is it met by `COc1ccc2c(c1)c(CC(=O)[Se]CCC#N)c(C)n2C(=O)c1ccc(Cl)cc1` ?
1.0

Does this compound meet the criterion growth < 60%? Nc1nc(N)c2c(n1)NC(c1ccc(C(F)(F)F)cc1)CC(c1ccc(Nc3nc(NCCO)nc(N4CCOCC4)n3)cc1)=N2 (centres undefined)
0.0

Hi there! Is growth for `COc1cccc2c1CN(C(=O)c1ccc(O)c(C(=O)N3Cc4ccc(OCCC[P+](c5ccccc5)(c5ccccc5)c5ccccc5)cc4C3)c1)C2` below 60%, do you know?
0.0

* * *

- Test system: UO-31 renal
- Method Description: NCI-60 one-dose screen, 48 h (100 = growth as untreated, 0 = no growth, -100 = all killed)
- Setup Conditions: 10 µM unless noted
About 83,000 compounds went through this panel and 20% of them were active in at least one assay; those are over-represented in the sample as a whole.
We label by threshold. Values of growth strictly beneath 70% are MET. Values of 70% and up are NOT MET.

Dear reviewer, please state whether `Brc1ccccc1/C=N/Nc1nc(N/N=C/c2ccccc2Br)nc(N2CCOCC2)n1` has growth strictly beneath 70%.
NOT MET

Please indicate whether the reported growth of COc1cc2nc(Cl)nc(Nc3cccc(C4=Nc5c(N)nc(N)nc5NC(c5ccc(F)cc5)C4)c3)c2cc1OC (centres undefined) is strictly below 70%.
NOT MET

Strictly below 70%: is that where growth of CCO/C=N/C1=C(C#N)C(c2ccc(Cl)cc2)c2sc3c(CC)cccc3c2O1 (centres undefined) sits?
MET

growth under 70%? Item: `Cc1ccc(N2C(=O)/C(=C/C=C/c3ccco3)SC2=S)cc1`
NOT MET

Is the reported growth for `Fc1ccc(-c2cc3nc(C(Cl)Cl)nc(-c4ccco4)n3n2)cc1` strictly below 70%?
MET

Does the reported growth of `C=CCn1c(SCC(=O)Nc2ccc(C(=O)/C=C/c3ccc(Br)cc3)cc2)nnc1-c1c[nH]c2ccccc12` stay below 70%?
MET

Please determine if `O=S(=O)(Nc1ccc(I)cc1Cl)c1ccc(-c2cnc(C3CC3)o2)cc1` is below 70% in terms of growth.
MET

Would you kindly verify if growth of COc1cc2nc(Cl)nc(Nc3cccc(C4=Nc5c(N)nc(N)nc5NC(c5ccc(Br)cc5)C4)c3)c2cc1OC (centres undefined) is strictly less than 70%?
NOT MET

* * *

- Tested on: SN12C renal
- Method Description: NCI-60 one-dose screen, 48 h (100 = growth as untreated, 0 = no growth, -100 = all killed)
- Setup Conditions: 10 µM unless noted
Compounds without any hit were thinned out: in the full panel of roughly 83,000, 20% have a hit.
Outcome label depends on growth relative to 80%: at/above gives MET, below gives NOT MET.

Check this compound for growth at or above 80%: `Nc1nc(-c2cccc([N+](=O)[O-])c2)c(N=Nc2ccc(Br)cc2)s1`
NOT MET

Decide: is the reported value of growth for `CS(=O)(=O)Nc1cc(-c2ccc3ncc(C#N)c(NCc4ccccc4F)c3c2)cnc1Cl` equal to or greater than 80%?
NOT MET

Say whether `Cc1cc(C)n(C(=O)c2sc(=S)n(-c3ccccc3)c2N=Nc2c(N)n[nH]c2N)n1` shows growth of 80% or more.
MET

Can `O=C(CCn1cc[n+](CC(=O)c2ccc(-c3ccccc3)cc2)c1)Nc1cccc2cccnc12` be said to have growth at or above 80%?
NOT MET

Test whether the compound `NC(=O)c1c(NC(=O)c2ccccc2C(F)(F)F)sc2c1CCC(=O)C2` records growth of 80% or higher.
NOT MET

Given the entry `COc1cc(/C=C2\C(=O)Nc3ccccc32)ccc1OCc1ccc(Cl)cc1` , answer whether its growth meets or surpasses 80%.
MET

growth >= 80% for `CCCCCc1ccc(S(=O)(=O)Nc2cccc(-c3csc(NC(=O)CNCCN(C)C)n3)c2)cc1` ?
MET

Assess whether reported growth for `NC(N)=Nc1ccc(Nc2cccc(Nc3ccc(Cl)c(C(F)(F)F)c3)c2)cn1` sits at 80% or higher.
NOT MET

For this compound, is measured growth 80% or higher? CCO/C=N/C1=C(C#N)C(c2ccc(F)cc2)c2sc3c(C)cccc3c2O1 (centres undefined)
NOT MET
